- EXPERIMENTAL SYSTEM: T1, recombinant HCMV pentamer (strain VR1814) consisting of gH, gL, UL128, UL130 and UL131A (human cytomegalovirus (strain VR1814))
- T1 construct: also called recombinant pentamer; Native Antigen CMV-PENT-100
- TEST NAME: BLI (Octet RED); antibody captured on anti-mouse Fc (AMC) biosensor, recombinant pentamer 100 µg/mL in solution; 1:1 model
TEST READOUT: kon (M⁻¹ s⁻¹)
Express it in M⁻¹ s⁻¹; write the number only.

So what's the measured kon for this one? 9A12 (antibody, V domains shown, also called 9A12 (ms); anti-gH mAb 9A12) VH: EVQLVESGGVLVQPGGSLRLSCAASGFTFSSHEMNWVRQAPGKGLEWISYISSTGSTIYDADSVKGRFTISRDNAKNSLYLQMNSLRAEDTAVYYCARSSGWYRNYSYGMDVWGQGTTVTVSS VL: DIQMAQSPSSLSASVGDRVTITCRASQGIYNYLAWFQQKPGKAPKSLIYAASSLQTGVPSKFSGSGSGTDFTLTISNLQPEDFATYYCQQYNSFPRTFGQGTKVEIK
24800
